studySystem: T1, Fusion protein of extracellular domain of human TIGIT and His-tag (human TIGIT ECD-his) (human)
T1 chain: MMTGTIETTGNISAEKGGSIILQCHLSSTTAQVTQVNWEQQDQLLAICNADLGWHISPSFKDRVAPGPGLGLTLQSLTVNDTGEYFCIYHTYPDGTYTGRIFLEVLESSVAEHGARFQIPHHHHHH
procedureText: BIAcore
readoutLabel: koff (s⁻¹)
Give the value, in units of s⁻¹, as a plain number.

// solved cases for koff follow
>  <binder>
TIGIT-005-H2L1b (antibody, V domains shown, Humanized anti-TIGIT antibody with NG-site mutation in VL) VH: EVQLVQSGAEVKKPGASVKVSCKASGYAFTNYLIEWVRQAPGQRLEWMGVINPGSGGTNYKEKFKGRVTITADKSSSTAYMELSSLRSEDTAVYYCARGEYFFFDYWGQGTTVTVSS VL: DIVMTQSPDSLAVSLGERATINCKASQHVSTGVAWYQHKPGQSPKLLIYSASYRYTGVPDRFSGSGSGTDFTLTISSLQAEDVAVYYCQQHYNTPHTFGGGTKVEIK

>  <koff (s⁻¹)>
0.00248

$$$$
>  <binder>
TIGIT-006-H2L3 (antibody, V domains shown, Humanized anti-TIGIT antibody) VH: EVQLQESGPGLVKPSETLSLTCAVSGYSMTSDYWNWIRQPPGKGLEWIGYISYSGRTYYNPSLKSRVTISRDTSKNQFSLKLSSVTAADTAVYYCARGDYSNYGGAMYDWGQGTTVTVSS VL: DIVMTQSPDSLAVSLGERATINCRASQGVSTTIAWYQQKPGQSPKLLIYSASYRYTGVPRFSGSGSGTDFTLTISSLQAEDVAVYYCQQYYSSPFTFGGGTKVEIK

>  <koff (s⁻¹)>
0.000216

$$$$

Shift focus to the following entry.
(Q) Indicate its recorded koff; the binder in question is TIGIT-070-H2L2 (antibody, V domains shown, Humanized anti-TIGIT antibody) VH: EVQLVQSGAEVKKPGASVKVSCKASGYTFTNYYMHWVRQAPGQRLEWMGRIDPDSGGSKYNEKFKSRVTITVDKLSSTAYMELSSLRSEDTAVYYCAREGHYGFYSDYWGQGTTVTVSS VL: DIQMTQSPSSLSASVGDRVTITCRVSENIYSYLAWYQQKPGKSPKLLVYNAKTLAEGVPSRFSGSGSGTDFTLTISSLQPEDFATYYCQHHYGNPLTFGPGTKVDIK
(A) 0.000142

// data source = patent US20240343803A1
